# maps each entry to its %Inh
- System: ADCK4
- condition_context: concentration: 1 μM, replicates: in singlicate; n = 1;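 also: KINOMEscan kinase panel screen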
Quick note: give the figure in %, leave out the unit.

Some solved cases for reference:
COc1cccc(NC(=O)NC2CCN(c3ccnc(Nc4ccc(F)cc4)n3)C2)c1 (stereo not shown)	22
Cc1cccc(-c2nc(Nc3ccncc3)c3ccccc3n2)n1	0
Cc1cccc(-c2nc(C)cc(Nc3ccncc3)n2)n1	24
Cc1c(O)cccc1Nc1ccnc2ccc(C(F)(F)F)cc12.Cl	81
CN(C)CCN(C)C(=O)c1cc(-c2ccncc2)c(-c2ccc(Cl)c(O)c2)o1.Cl.Cl	45
COc1ccc(C2=C(Nc3cccc(C(=O)O)c3)C(=O)NC2=O)cc1	0
COc1ccccc1-c1ccc2c(NC(=O)C3CC3)n[nH]c2n1	19
Cc1ccccc1-n1cnc2c(N)ncnc21	0
CC(C)(C)c1ccc(C(=O)Nc2cn3cc(-c4cccnc4)ccc3n2)cc1	0
COc1ccc(CNC(=O)NC2CCN(c3ccnc(Nc4cc(OC)c(OC)c(OC)c4)n3)C2)cc1 (stereo not shown)	76

[in] Please give the measured %Inh for this compound: `Fc1cc(Cl)ccc1Nc1ccnc2cc(-c3ccc(CN4CCCCC4)o3)ccc12`
[out] 38

[in] Please give the measured %Inh for this compound: COc1cc2ncn(-c3cc(OCC4CCCO4)c(C(N)=O)s3)c2cc1OC (stereo not shown)
[out] 12

[in] Please give the measured %Inh for this compound: O=C(Nc1ccc2c(c1)OCO2)NC1CCN(c2ccnc(Nc3ccc(F)cc3)n2)C1 (stereo not shown)
[out] 36

[in] Please give the measured %Inh for this compound: `Cc1c(Cn2ccn3c(=O)cc(N4CCOCC4)nc23)cccc1C(F)(F)F`
[out] 0

[in] Please give the measured %Inh for this compound: `O=c1cc(N2CCOCC2)nc2n(Cc3cccc(Cl)c3Cl)ccn12`
[out] 6

[in] Please give the measured %Inh for this compound: `Cc1cccc(-c2nc(Nc3ccc4[nH]ncc4c3)c3ccccc3n2)n1`
[out] 0

[in] Please give the measured %Inh for this compound: `Cc1cc(-c2ccc3c(c2)CC[C@@H](N[C@@H](C)c2ccccc2)C3)cnc1N.Cl`
[out] 1

[in] Please give the measured %Inh for this compound: `Nc1ncnc2[nH]c(-c3ccccc3)nc12`
[out] 12

[in] Please give the measured %Inh for this compound: `NC(=O)c1nnc2ccccc2c1N`
[out] 1

* * *

- System: CLK1
- condition_context: concentration: 1 μM, replicates: in singlicate; n = 1
readout_kind: %Inh (%)
Quick note: give the figure in %, leave out the unit.

COc1ccc(Nc2nccc(NCCNC(=O)Nc3ccccc3F)n2)cc1 [GSK1379901]	32
COc1cccc(-c2cc(-c3c[nH]nc3-c3ccccn3)ccn2)c1 [GW680338]	22

[in] API: value(readout=%Inh, system=CLK1) for record `Cc1cccc(-c2nc(-c3ccc(S(C)(=O)=O)cc3)sc2-c2ccnc(NCCc3ccccc3)c2)c1`
[out] 8

[in] API: value(readout=%Inh, system=CLK1) for record `CS(=O)(=O)c1ccc(-c2c(-c3ncn[nH]3)sc(N3CCOCC3)c2C#N)cc1`
[out] 5

* * *

- System: MKNK1
- condition_context: concentration: 1 μM, replicates: in singlicate; n = 1
# maps each entry to its %Inh
Quick note: give the figure in %, leave out the unit.

Some solved cases for reference:
Cc1cccc(-c2nc(C)cc(Nc3ccncc3)n2)n1	0
COc1cccc(NC(=O)NC2CCN(c3ccnc(Nc4ccc(F)cc4)n3)C2)c1 (stereo not drawn)	23

Shifting focus to the compound that follows.
[in] Please give the measured %Inh for this compound: `CN(C)CCN(C)C(=O)c1cc(-c2ccncc2)c(-c2ccc(Cl)c(O)c2)o1.Cl.Cl`
[out] 2

* * *

- Test system: AMPK-alpha1
- Construct: gene PRKAA1
- condition_context: concentration: 1 μM, replicates: in singlicate; n = 1
readout_kind: %Inh (%)
Quick note: give the figure in %, leave out the unit.

Cc1c(O)cccc1Nc1ccnc2ccc(C(F)(F)F)cc12.Cl	12
COc1ccc(CNC(=O)NC2CCN(c3ccnc(Nc4cc(OC)c(OC)c(OC)c4)n3)C2)cc1 (centres unmarked)	10
COc1cc(Nc2nccc(N3CCC(NC(=O)Nc4cc(C)ccc4C)C3)n2)cc(OC)c1OC (centres unmarked)	0

[in] Please give the measured %Inh for this compound: CC1=C(C(=O)Nc2cc3cn[nH]c3cc2F)C(c2ccc(C(F)(F)F)cc2)CC(=O)N1 (centres unmarked)
[out] 23

[in] Please give the measured %Inh for this compound: `NC(=O)c1nnc2ccccc2c1N`
[out] 25

* * *

- Tested on: SLK
- condition_context: concentration: 1 μM, replicates: in singlicate; n = 1
readout_kind: %Inh (%)
Quick note: give the figure in %, leave out the unit.

CCn1c(-c2ccccn2)nc2cnccc21 [SB-736398]	8
Cl.NC(=O)c1cccc(Nc2nccc(Nc3ccc(Oc4cccc(Cl)c4)c(Cl)c3)n2)c1 [GW659008]	32
Cc1cccc(-c2nc(Nc3ccncc3)c3ccccc3n2)n1 [GW855857]	18
O=C(Nc1n[nH]c2nc(-c3nccs3)c(Br)cc12)C1CCCC1 [SB-742609]	7
Cc1cccc(-c2nc(C)cc(Nc3ccncc3)n2)n1 [GSK257997]	42
COc1ccccc1-c1ccc2c(NC(=O)C3CC3)n[nH]c2n1 [SB-711239]	8

[in] Please give the measured %Inh for this molecule: Cc1cc(N2Cc3ccccc3C2)nc(Nc2ccc(S(=O)(=O)N3CCOCC3)cc2)n1.Cl [GSK1669917]
[out] 0

[in] Please give the measured %Inh for this molecule: O=C(Nc1n[nH]c2nc(-c3nccs3)c(Br)cc12)C1CC1 [SB-742251]
[out] 0

[in] Please give the measured %Inh for this molecule: Clc1cc(Cl)cc(Nc2ccnc(Nc3cc(Cl)cc(Cl)c3)n2)c1 [GSK175726]
[out] 8

* * *

- System: ULK1
- condition_context: concentration: 1 μM, replicates: in singlicate; n = 1
# maps each entry to its %Inh
Quick note: give the figure in %, leave out the unit.

C[C@@H]1CCCCN1c1cc(-c2ccc3c(N)n[nH]c3c2)nc(N)n1	0
COc1cc(Nc2nccc(N3CCC(NC(=O)Nc4cc(C)ccc4C)C3)n2)cc(OC)c1OC (centres unmarked)	19
CS(=O)(=O)c1ccc(-c2c(-c3ncn[nH]3)sc(N3CCOCC3)c2C#N)cc1	3
Cc1cc(-c2ccc3c(c2)CC[C@@H](N[C@@H](C)c2ccccc2)C3)cnc1N.Cl	19

[in] API: value(readout=%Inh, system=ULK1) for record `O=c1cc(N2CCOCC2)nc2n(Cc3cccc(Cl)c3Cl)ccn12`
[out] 12

[in] API: value(readout=%Inh, system=ULK1) for record `Nc1nc(-c2nccs2)c(-c2ccnc3ccccc23)s1`
[out] 8

[in] API: value(readout=%Inh, system=ULK1) for record `NC(=O)c1nnc2ccccc2c1N`
[out] 24

[in] API: value(readout=%Inh, system=ULK1) for record `CCn1c(-c2cccnc2O)nc2cnccc21`
[out] 0

[in] API: value(readout=%Inh, system=ULK1) for record `Cc1ccc(C(=O)Nc2ccc(Nc3ccnc4cc(-c5ccccn5)ccc34)cc2O)cc1.Cl`
[out] 0

[in] API: value(readout=%Inh, system=ULK1) for record `Cc1ccccc1-n1cnc2c(N)ncnc21`
[out] 0

[in] API: value(readout=%Inh, system=ULK1) for record `COc1ccc(C2=C(Nc3cccc(C(=O)O)c3)C(=O)NC2=O)cc1`
[out] 16

[in] API: value(readout=%Inh, system=ULK1) for record `CCn1c(-c2ccccn2)nc2cnccc21`
[out] 8

* * *

- Tested on: BRK
- Construct: gene PTK6
- condition_context: concentration: 1 μM, replicates: in singlicate; n = 1
readout_kind: %Inh (%)
Quick note: give the figure in %, leave out the unit.

Some solved cases for reference:
Cc1c(O)cccc1Nc1ccnc2ccc(C(F)(F)F)cc12.Cl	86
Cc1cc(-c2ccc3c(c2)CC[C@@H](N[C@@H](C)c2ccccc2)C3)cnc1N.Cl	22
COC(=O)c1c(-c2ccccc2)c2cc(OC)ccc2c(=O)n1Cc1ccccc1	0
COC(=O)c1c(-c2ccccc2)c2cc(C(=O)O)ccc2c(=O)n1Cc1ccccc1	0
Cc1ccccc1-n1cnc2c(N)ncnc21	5

[in] Please give the measured %Inh for this molecule: CCCc1ccc(S(=O)(=O)NC2CCN(c3ccnc(Nc4ccc(F)cc4)n3)C2)cc1 (stereo not drawn)
[out] 0

[in] Please give the measured %Inh for this molecule: `Cn1ccc2ncnc(Oc3ccc(Nc4nc5ccccc5[nH]4)cc3)c21`
[out] 0

[in] Please give the measured %Inh for this molecule: `COc1ccccc1CNC(=O)c1cc(C(=O)c2ccccc2C)c[nH]1`
[out] 12

[in] Please give the measured %Inh for this molecule: `Nc1ncnc2[nH]c(-c3ccccc3)nc12`
[out] 16

* * *

# maps each entry to its %Inh
- Tested on: CAMK2A
- condition_context: concentration: 1 μM, replicates: in singlicate; n = 1
Quick note: give the figure in %, leave out the unit.

Some solved cases for reference:
O=S(=O)(c1ccc(-c2ccnc3[nH]ccc23)cc1)N1CCCC1	47
Fc1cc(Cl)ccc1Nc1ccnc2cc(I)ccc12	0
NC(=O)c1nnc2ccccc2c1N	0
COc1ccc(Nc2nccc(NCCNC(=O)Nc3ccccc3F)n2)cc1	0
Cn1ccc2ncnc(Oc3ccc(Nc4nc5ccccc5[nH]4)cc3)c21	7

[in] API: value(readout=%Inh, system=CAMK2A) for record `Nc1ncnc2[nH]c(-c3ccccc3)nc12`
[out] 0

[in] API: value(readout=%Inh, system=CAMK2A) for record `COc1ccccc1-c1ccc2c(NC(=O)C3CC3)n[nH]c2n1`
[out] 0

[in] API: value(readout=%Inh, system=CAMK2A) for record `Cn1cncc1-c1ccc2ncnc(Nc3ccc(OCc4ccccc4)cc3)c2c1`
[out] 0

[in] API: value(readout=%Inh, system=CAMK2A) for record `O=C(Nc1n[nH]c2nc(-c3nccs3)c(Br)cc12)C1CC1`
[out] 0
